# credit: patent US8633245B2

molecular target: recombinant human PAI-1 (Homo sapiens, UniProt P05121); construct: purchased Molecular Innovations, Inc; assay: Test Example 2: human PAI-1 inhibitory activity (tPA fluorogenic substrate, pH 7.4 HEPES buffer); assay type: biochemical; settings: human PAI-1; compound concentration 0.1 μM
Sequence (P05121 24-402): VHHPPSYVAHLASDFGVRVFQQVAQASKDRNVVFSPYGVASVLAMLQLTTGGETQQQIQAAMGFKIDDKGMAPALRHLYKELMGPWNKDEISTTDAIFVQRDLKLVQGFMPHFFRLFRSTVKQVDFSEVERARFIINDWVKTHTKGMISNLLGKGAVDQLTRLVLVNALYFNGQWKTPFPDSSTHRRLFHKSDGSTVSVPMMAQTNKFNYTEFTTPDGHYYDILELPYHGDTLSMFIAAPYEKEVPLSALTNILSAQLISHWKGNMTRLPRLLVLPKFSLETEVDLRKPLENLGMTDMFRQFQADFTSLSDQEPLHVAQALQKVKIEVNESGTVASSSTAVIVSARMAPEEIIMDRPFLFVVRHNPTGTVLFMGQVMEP
Measure Name: Inhibition Rate of PAI-1 Activity (%)
Please reply with the bare figure in % and do not write the unit itself.

What reported Inhibition Rate of PAI-1 Activity (%) corresponds to `CCC(CC)Oc1ccc(-c2ccc(CCC(=O)O)c(Oc3ccc(C(C)(C)C)cc3)c2)cc1` on recombinant human PAI-1 (Homo sapiens, UniProt P05121)? 33

Param item: `CCCCCOc1cc(N(CCCCc2ccccc2)C(=O)C(=O)O)ccc1-c1ccc(OC(F)(F)F)cc1` 4

Param item: `CCCCCOc1cc(-c2ccc(OC(F)(F)F)cc2)ccc1CN(CC(=O)O)c1ccc(C(C)(C)C)cc1` 10

Param item: `CN(CC(=O)O)c1ccc(-c2ccc(OC(F)(F)F)cc2)cc1Oc1ccc(C(C)(C)C)cc1` 13

Param item: CC(Oc1cc(-c2ccc(OC(F)(F)F)cc2)ccc1/C=C/C(=O)O)c1ccccc1 (centres unmarked) 19

Param item: `Cc1cc(C)cc(Oc2cc(-c3ccc(C(C)(C)C)cc3)ccc2CCC(=O)O)c1` 15

Param item: `O=C(O)CCc1ccc(-c2ccc(OC(F)(F)F)cc2)cc1Oc1ccc(OC(F)(F)F)cc1` 17

Param item: `O=C(O)C(=O)N(CCCCc1ccccc1)c1cc(-c2ccc(OC(F)(F)F)cc2)ccc1OCCCC1CCCCC1` 24

###

target: recombinant human PAI-1 (Homo sapiens); construct: purchased Molecular Innovations, Inc; assay: Test Example 2: human PAI-1 inhibitory activity (tPA fluorogenic substrate, pH 7.4 HEPES buffer); assay type: biochemical; conditions: human PAI-1; compound concentration 3 μM
Measure Name: Inhibition Rate of PAI-1 Activity (%)

So what does the record say about Inhibition Rate of PAI-1 Activity (%) for `CC(C)(C)c1ccc(CN(C(=O)CCCC(=O)O)c2ccc(-c3ccc(OC(F)(F)F)cc3)cc2)cc1` ? 20%

Param item: `CC(C)(C)c1ccc(COc2ccc(N3CCN(c4ccc(OC(F)(F)F)cc4)CC3)cc2CCC(=O)O)cc1` 93%

Param item: `CC(C)(C)c1ccc(Oc2cc(-c3ccc4ccccc4c3)ccc2/C=C/C(=O)O)cc1` >99%

Param item: `CN(C(=O)c1ccc(N(Cc2ccc(C(C)(C)C)cc2)C(=O)C(=O)O)cc1)c1ccc(OC(F)(F)F)cc1` 24%

###

Biological target: recombinant rat PAI-1 (Rattus norvegicus, UniProt P20961)
Construct: purchased Molecular Innovations, Inc
Sequence (P20961 24-402): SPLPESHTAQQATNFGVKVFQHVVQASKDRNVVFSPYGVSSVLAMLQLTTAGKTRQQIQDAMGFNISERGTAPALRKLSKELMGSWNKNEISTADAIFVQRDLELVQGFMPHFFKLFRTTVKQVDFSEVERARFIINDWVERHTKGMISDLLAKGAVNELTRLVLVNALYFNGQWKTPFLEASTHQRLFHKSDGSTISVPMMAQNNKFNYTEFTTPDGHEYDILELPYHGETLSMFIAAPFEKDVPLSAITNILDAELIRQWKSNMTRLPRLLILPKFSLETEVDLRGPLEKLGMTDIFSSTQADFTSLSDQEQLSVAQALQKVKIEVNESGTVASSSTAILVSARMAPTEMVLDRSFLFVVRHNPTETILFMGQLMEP
Assay: Test Example 3: rat PAI-1 inhibitory activity (as Test Example 2 with rat PAI-1)
Assay type: biochemical
Details: rat PAI-1; compound concentration 10 μM
Measure Name: Inhibition Rate of PAI-1 Activity (%)
In your response, put the unit directly after the numeric value.

So what does the record say about Inhibition Rate of PAI-1 Activity (%) for `Cc1cc(N(C)C)c(-c2ccc(OC(F)(F)F)cc2)cc1N(Cc1ccc(C(C)(C)C)cc1)C(=O)C(=O)O` ? 97%

Param item: `CCCCc1ccc(COc2ccc(-c3ccc(OC(F)(F)F)cc3)cc2CCC(=O)O)cc1` 89%

Param item: `CC(C)(C)c1ccc(CN(C(=O)C(=O)O)c2ccc(OCc3ccccc3)c(-c3ccc(OC(F)(F)F)cc3)c2)cc1` 67%

Param item: `CN(C)c1ccc(N(Cc2ccc(C(C)(C)C)cc2)C(=O)C(=O)O)cc1-c1ccc(OC(F)(F)F)cc1` 97%

Param item: `CCN(CC)c1ccc(N(Cc2ccc(C(C)(C)C)cc2)C(=O)C(=O)O)cc1-c1ccc(OC(F)(F)F)cc1` 78%

Param item: `CC(C)Oc1ccc(N(Cc2ccc(C(C)(C)C)cc2)C(=O)C(=O)O)cc1-c1ccc(OC(F)(F)F)cc1` 87%

###

target: recombinant human PAI-1 (Homo sapiens, UniProt P05121); construct: purchased Molecular Innovations, Inc; assay: Test Example 2: human PAI-1 inhibitory activity (tPA fluorogenic substrate, pH 7.4 HEPES buffer); type: biochemical; details: human PAI-1; compound concentration 0.1 μM
Measure Name: Inhibition Rate of PAI-1 Activity (%)
Please reply with the bare figure in % and do not write the unit itself.

So what does the record say about Inhibition Rate of PAI-1 Activity (%) for `CC(C)(C)c1ccc(CCc2cc(-c3ccc(OC(F)(F)F)cc3)ccc2OCC(=O)O)cc1` ? 0

Param item: `CCCCCOc1cc(-c2ccc(OC(F)(F)F)cc2)ccc1CN(C(=O)C(=O)O)c1ccc(C(C)(C)C)cc1` 4

Param item: `CC(C)(C)c1ccc(Sc2cc(-c3ccc(OC(F)(F)F)cc3)ccc2CCC(=O)O)cc1` 20

Param item: `CC(C)c1ccc(Oc2cc(-c3ccc(OC(F)(F)F)cc3)ccc2/C=C/C(=O)O)cc1` 1

Param item: `CC(C)(C)OCCOc1ccc(-c2ccc(OC(F)(F)F)cc2)cc1N(CCCCc1ccccc1)CC(=O)O` 27

Param item: CCCCC(C(=O)O)N(Cc1ccc(C(C)(C)C)cc1)c1ccc(-c2ccc(OC(F)(F)F)cc2)cc1 (stereo not shown) 16

Param item: `CCCCc1ccc(Oc2cc(-c3ccc(OC(F)(F)F)cc3)ccc2OCC(=O)O)cc1` 19

Param item: `CC(C)(C)c1ccc(Oc2cc(-c3cc(Cl)ccc3Cl)ccc2/C=C/C(=O)O)cc1` 0

Param item: `CCCCCCCCCCN(C(=O)C(=O)O)c1ccc(-c2ccc(OC(F)(F)F)cc2)cc1` 28

Param item: `CC(C)(C)c1ccc(-c2ccc(CCC(=O)O)c(Oc3ccc(OC(F)(F)F)cc3)c2)cc1` 17

Param item: `CC(C)(C)c1ccc(Sc2cc(-c3ccc(OC(F)(F)F)cc3)ccc2/C=C/C(=O)O)cc1` 37

Param item: `O=C(O)/C=C/c1cc(-c2ccc(OC(F)(F)F)cc2)ccc1OCCCCCOc1ccc(-c2ccc(OC(F)(F)F)cc2)cc1/C=C/C(=O)O` 0

Param item: `O=C(O)C(=O)N(CCCCc1ccccc1)c1cc(-c2ccc(OC(F)(F)F)cc2)ccc1OCCCCCO` 7

Param item: CCCCC(Nc1cc(-c2ccc(OC(F)(F)F)cc2)ccc1Oc1ccc(C(C)(C)C)cc1)C(=O)O (stereo not shown) 1

Param item: `CC(C)(C)c1ccc(-c2ccc(OCC(=O)O)c(Oc3cccc(C(C)(C)C)c3)c2)cc1` 10

Param item: `O=C(O)COc1cc(Oc2ccc(OC(F)(F)F)cc2)ccc1OCCCCc1ccccc1` 9

Param item: `O=C(O)C(=O)N(CCCCc1ccccc1)c1ccc(N2CCCCCC2)c(-c2ccc(OC(F)(F)F)cc2)c1` 5

Param item: `CC(C)(C)c1ccc(Oc2cc(-c3ccc4ccccc4c3)ccc2/C=C/C(=O)O)cc1` 4

Param item: `CC(C)(C)c1ccc(Oc2cc(-c3cc(Cl)ccc3Cl)ccc2CCC(=O)O)cc1` 0

Param item: `CC(C)(C)c1cccc(Oc2cc(-c3cccc(OC(F)(F)F)c3)ccc2CCC(=O)O)c1` 12

Param item: `CCC(C)(C)c1ccc(Oc2cc(-c3ccc(OC(F)(F)F)cc3)ccc2CCC(=O)O)cc1` 4

Param item: `Cc1ccc(-c2ccc(OCC(=O)O)c(Oc3ccc(C(C)(C)C)cc3)c2)cc1` 0

Param item: CCCCC1CCC(Oc2ccc(-c3ccc(OC(F)(F)F)cc3)cc2N(CCCCc2ccccc2)C(=O)C(=O)O)CC1 (stereo not shown) 0

Param item: `CC(C)(C)c1ccc(Oc2cc(Nc3ccc(OC(F)(F)F)cc3)ccc2OCC(=O)O)cc1` 1

Param item: `CC(C)(C)c1cccc(Oc2ccc(-c3ccc(OC(F)(F)F)cc3)cc2OCC(=O)O)c1` 12

Param item: `CCCCCCCOc1cc(N(CCCCc2ccccc2)C(=O)C(=O)O)ccc1-c1ccc(OC(F)(F)F)cc1` 16

Param item: `CCCCCOc1ccc(-c2ccc(OC(F)(F)F)cc2)cc1N(CCCCc1ccccc1)CC(=O)O` 0

Param item: `CC(C)(C)c1ccc(Oc2cc(-c3ccc(Cl)cc3)ccc2OCC(=O)O)cc1` 21

Param item: `CCCCCCOc1ccc(-c2ccc(OC(F)(F)F)cc2)cc1N(CCCCc1ccccc1)C(=O)C(=O)O` 19

Param item: `O=C(O)/C=C/c1ccc(-c2ccc(OC(F)(F)F)cc2)cc1OCCCOCc1ccccc1` 0

Param item: `CCC(CC)Oc1ccc(-c2ccc(/C=C/C(=O)O)c(Oc3ccc(C(C)(C)C)cc3)c2)cc1` 25
